test: Primary qHTS for delayed death inhibitors of the malarial parasite plastid, 96 hour incubation; conditions: P. falciparum luciferase reporter growth; series mostly up to 28.7 µM
Hit rate of the full screen: of about 320,000 compounds, about 22,000 (6.9%) were called active. Inconclusive results (about 27%) are left out. Calls follow the shape of the dose curve; as a rule, active = well fitted inhibition curve with a large enough effect; inconclusive = small, poorly fitted or top-dose-only effect, or another doubt; inactive = no such curve, though single readings can be large or run the other way. What follows is part of a selection rich in actives, with near analogues and random picks from the rest.
Pick one and only one: active, inactive

Recorded results for 3 compounds are shown here.
Cn1c(=O)oc2cc(S(=O)(=O)N3CCC(C(=O)Nc4ccc(OC(F)(F)F)cc4)CC3)ccc21 | inactive
Cc1ccc(SCc2c(C(=O)N/N=C/C3CC=CCC3)nnn2-c2nonc2N)cc1 (stereo unspecified) | inactive
Cc1ccc2c(c1)N(CC(=O)N1CCCC(C)C1)C(=O)CO2 (stereo unspecified) | inactive

Q: Record lookup: outcome of this test for CCCCN1CCNC1=S ?
Ans: inactive

----------
test: Primary qHTS for delayed death inhibitors of the malarial parasite plastid, 96 hour incubation; also: potency is read from the fitted curve at half-maximal effect; conditions: P. falciparum luciferase reporter growth; series mostly up to 28.7 µM
In all, about 320,000 compounds went through this assay and about 22,000 (6.9%) were called active. Another 27% or so got no clear call; they are omitted. This excerpt belongs to a sample that is enriched for actives.
OBSERVED PROPERTY: Potency

Take a look at these entries with their results.
NC1=NC(=O)S/C1=C\c1ccc(O)cc1 | inactive
O=C1N=C(N2CCc3ccccc3C2)S/C1=C\c1ccc(O)cc1 | 11.7 µM (active)
CCC(C)(C)NC(=O)CN(C(=O)CCC(=O)Nc1nccs1)c1ccc2c(c1)OCO2 | inactive
COc1ccc(NC(=O)NNC(=O)COc2cc(C)c(Cl)c(C)c2)c(OC)c1 | inactive
O=C(NCCCn1ccnc1)c1cc(-c2ccccc2)on1 | inactive

API: the following record is the query input.
Q: For the compound O=C(CCc1ccccc1Cl)Nc1ccc(S(=O)(=O)Nc2nccs2)cc1 , give its reported Potency.
Ans: inactive

----------
test: Primary qHTS for delayed death inhibitors of the malarial parasite plastid, 96 hour incubation; conditions: P. falciparum luciferase reporter growth; series mostly up to 28.7 µM
In all, about 320,000 compounds went through this assay and about 22,000 (6.9%) were called active. Another 27% or so got no clear call; they are omitted. Calls come from the whole dose curve; as a rule, active = well fitted inhibition curve with a large enough effect; inconclusive = small, poorly fitted or top-dose-only effect, or another doubt; inactive = no such curve, though single readings can be large or run the other way. The sample holds actives, similar compounds and a random draw of the others, so the mix is not that of the screen.
Pick one and only one: active, inactive

Q: Record lookup: outcome of this test for C=CCC1(CC=C)CCCN1C(=O)CC1C(=O)NCCN1Cc1ccccc1OC (stereo unspecified) ?
Ans: active

Q: Record lookup: outcome of this test for CCC(=O)Nc1nnc(S(=O)(=O)N2CCCc3ccccc32)s1 ?
Ans: inactive

Q: Record lookup: outcome of this test for O=C(N/N=C/c1ccco1)c1csc2c1CCCC2 ?
Ans: inactive

Q: Record lookup: outcome of this test for CN(C(=O)CC1C(=O)NCCN1Cc1ccc(F)cc1Cl)C1CCCCC1 (stereo unspecified) ?
Ans: inactive

Q: Record lookup: outcome of this test for COc1ccc(N(CC(=O)NCC2CCCO2)C(=O)CCC(=O)Nc2nccs2)c(OC)c1 (stereo unspecified) ?
Ans: inactive

----------
assay: Primary qHTS for delayed death inhibitors of the malarial parasite plastid, 96 hour incubation; conditions: P. falciparum luciferase reporter growth; series mostly up to 28.7 µM
In all, about 320,000 compounds went through this assay and about 22,000 (6.9%) were called active. Another 27% or so got no clear call; they are omitted. Calls follow the shape of the dose curve; as a rule, active = well fitted inhibition curve with a large enough effect; inconclusive = small, poorly fitted or top-dose-only effect, or another doubt; inactive = no such curve, though single readings can be large or run the other way. The full list was thinned out, with actives kept by preference.
Pick one and only one: active, inactive

Recorded results for 5 compounds are shown here.
C/C=C(\C)C(=O)N1CC2(CC(c3cccc(NC(=O)CCCCC)c3)=NO2)C[C@@H]1C(N)=O (stereo not given in full) | inactive
CCC(=O)Nc1cccc(C2=NOC3(C2)C[C@@H](C(N)=O)N(C(=O)c2cc([N+](=O)[O-])cc([N+](=O)[O-])c2C)C3)c1 (stereo not given in full) | active
Cn1c(-c2ccc(F)cc2)cc2onc(-c3ccccc3Cl)c2c1=O | inactive
CCn1cc(CN2CCC(C(=O)Nc3cccc(-c4cccc(Cl)c4)c3)CC2)cn1 | inactive
CCC(CC)C(=O)Nc1cccc(C(=O)N2CCCC2)c1 | active

Q: Record lookup: outcome of this test for Cc1cc(NC(=O)CSc2nnnn2-c2ccc(F)cc2)no1 ?
Ans: inactive

Q: Record lookup: outcome of this test for Cc1c(Cl)cccc1NC(=O)NCc1ccc(C)n1C ?
Ans: inactive

----------
test: Primary qHTS for delayed death inhibitors of the malarial parasite plastid, 96 hour incubation; details: P. falciparum luciferase reporter growth; series mostly up to 28.7 µM
Among all 320,000 compounds or so, about 22,000 (6.9%) were called active. About 27% were inconclusive and are not listed. Calls come from the whole dose curve; as a rule, active = well fitted inhibition curve with a large enough effect; inconclusive = small, poorly fitted or top-dose-only effect, or another doubt; inactive = no such curve, though single readings can be large or run the other way. Shown is part of a subset that was picked to be rich in actives.
Pick one and only one: t (active), f (inactive)

Recorded results for 5 compounds are shown here.
O=C(CSc1nc(-c2ccccc2)cs1)Nc1cccc([N+](=O)[O-])c1 | t
Cc1cccn2c(=O)nc(SCC(=O)NCc3ccccc3Cl)nc12 | f
O=C(CSCC(=O)Nc1cccc([N+](=O)[O-])c1)Nc1ccccc1 | f
OC(c1nc2ccc(F)cc2[nH]1)C(O)c1nc2ccc(F)cc2[nH]1 (stereo not given) | f
COc1ccc(CCNC(=O)NS(=O)(=O)c2ccc(C)cc2)cc1OC | f

Q: Record lookup: outcome of this test for COc1ccccc1-n1c(CNC(=O)c2ccccc2)nnc1SCC(=O)Nc1nnc(C)s1 ?
Ans: f

Q: Record lookup: outcome of this test for Cc1cccc(NC(=O)CSCC(=O)Nc2nnc(C3CC3)s2)c1 ?
Ans: f

Q: Record lookup: outcome of this test for CCOC(=O)c1sc(NC(=O)CSc2nc3c(c(=O)n2-c2ccccc2)SCC3)c(C(=O)OCC)c1C ?
Ans: t

Q: Record lookup: outcome of this test for CCNC(=O)CSc1nc(-c2ccccc2)cs1 ?
Ans: f

Q: Record lookup: outcome of this test for CCOC(=O)c1sc(NC(=O)COc2ncnc3ccccc23)c(C(=O)OCC)c1C ?
Ans: f

----------
Experiment: Primary qHTS for delayed death inhibitors of the malarial parasite plastid, 96 hour incubation
Details: P. falciparum luciferase reporter growth; series mostly up to 28.7 µM
Source text: The goal of this screen is to discover new antimalarial compounds that act by inhibiting the development of the apicoplast in the malarial parasite Plasmodium falciparum. […] We have developed a cell-based assay that measures parasite growth based on the expression of an integrated copy of a firefly luciferase reporter. […] Growth inhibition is detected by a decrease in luciferase activity. […]
The whole screen tested about 320,000 compounds, of which about 22,000 (6.9%) were called active. Roughly 27% stayed inconclusive and do not appear here. The call rests on the fitted dose curve; in most records, active means well fitted inhibition curve with a large enough effect; inconclusive means small, poorly fitted or top-dose-only effect, or another doubt; inactive means no such curve, though single readings can be large or run the other way. The list comes from a sample in which actives are over-represented; it also holds close analogues and randomly drawn compounds.
Pick one and only one: 1 (yes) for active, 0 (no) for inactive

Recorded results for 5 molecules are shown here.
CC1C(=O)N2CCCc3cc(S(=O)(=O)NCc4ccc(F)cc4)cc1c32 (stereo unspecified) | 0 (no)
Cc1cc(C)c(S(=O)(=O)Nc2c(C)n(C)n(-c3ccccc3)c2=O)cc1[N+](=O)[O-] | 0 (no)
OC(CNC1CCCCC1)c1ccccc1 (stereo unspecified) | 1 (yes)
Cc1cnc(CN(C)C(=O)CC2C(=O)NCCN2Cc2cccc(F)c2F)[nH]1 (stereo unspecified) | 0 (no)
O=C(CCc1nc(-c2ccccc2)no1)Nc1cccc(C(=O)NC2CC2)c1 | 0 (no)

Q: Record lookup: outcome of this test for COc1cccc(CN2CCNC(=O)C2CC(=O)N(C)CCc2ccccn2)c1 (stereo unspecified) ?
Ans: 0 (no)

Q: Record lookup: outcome of this test for CN(Cc1cccc2ncccc12)C(=O)CC1C(=O)NCCN1Cc1ccc(F)cc1 (stereo unspecified) ?
Ans: 1 (yes)

Q: Record lookup: outcome of this test for O=C(NNC(=O)C(O)c1ccccc1)NC1CCCCC1 (stereo unspecified) ?
Ans: 0 (no)

Q: Record lookup: outcome of this test for Cc1nc(-c2ccc(Cl)cc2)sc1C1(C)CC(c2ccccc2F)=NO1 (stereo unspecified) ?
Ans: 0 (no)

Q: Record lookup: outcome of this test for O=C(NCCNc1ccc([N+](=O)[O-])cc1Cl)c1ccccc1F ?
Ans: 0 (no)

Q: Record lookup: outcome of this test for CCOc1cc(N2CCOCC2)c(OCC)cc1NC(=O)COC(=O)[C@H](Cc1c[nH]c2ccccc12)NC(C)=O ?
Ans: 0 (no)

----------
experiment: Primary qHTS for delayed death inhibitors of the malarial parasite plastid, 96 hour incubation; conditions: P. falciparum luciferase reporter growth; series mostly up to 28.7 µM
Hit rate of the full screen: of about 320,000 compounds, about 22,000 (6.9%) were called active. Not shown: some 27% with an inconclusive outcome. Calls come from the whole dose curve; as a rule, active = well fitted inhibition curve with a large enough effect; inconclusive = small, poorly fitted or top-dose-only effect, or another doubt; inactive = no such curve, though single readings can be large or run the other way. Shown is part of a subset that was picked to be rich in actives.
Pick one and only one: true (active), false (inactive)

Recorded results for 2 compounds are shown here.
CNC(=O)CN1C(=O)NC(c2ccccc2)(c2ccccc2)C1=O | false
CN(C)C(CNC(=O)c1ccc(OCc2cn3ccccc3n2)cc1)c1ccco1 (stereo not drawn) | false

Here is another compound to look at.
Q: Record lookup: outcome of this test for COC(=O)C1=C(C)Nc2ncnn2C1c1cccnc1 (stereo not drawn) ?
Ans: false
